target: D(1A) dopamine receptor (Homo sapiens) (UniProt P21728); assay: NVS_GPCR_hDRD1: NovaScreen (NVS) G Protein-Coupled Receptor Assay for human Dopamine Receptor D1 (DRD1) (AID 2283269)
Sequence (P21728 whole entry, looked up): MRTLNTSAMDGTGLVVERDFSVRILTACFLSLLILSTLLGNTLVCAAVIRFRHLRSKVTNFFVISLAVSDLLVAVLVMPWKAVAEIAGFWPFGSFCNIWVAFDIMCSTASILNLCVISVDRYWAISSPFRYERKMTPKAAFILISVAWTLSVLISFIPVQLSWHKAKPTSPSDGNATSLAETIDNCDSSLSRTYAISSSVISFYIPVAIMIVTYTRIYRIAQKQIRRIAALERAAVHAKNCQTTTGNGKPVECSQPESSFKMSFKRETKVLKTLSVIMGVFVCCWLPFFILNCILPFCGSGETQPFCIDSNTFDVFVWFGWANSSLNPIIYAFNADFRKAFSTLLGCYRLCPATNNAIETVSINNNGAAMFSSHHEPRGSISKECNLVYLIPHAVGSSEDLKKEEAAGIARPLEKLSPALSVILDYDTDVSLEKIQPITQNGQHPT
Records with an inconclusive call do not appear. Activity calls are given as the source filed them. The calls were made as follows: active = hit-call score of the fitted dose curve at least 0.9, where 1 is the maximum; inconclusive = response in the unintended direction; inactive = score below 0.9.
readout.type: AC50

compound: CCCOCC(=Nc1ccc(Cl)cc1C(F)(F)F)n1ccnc1
reported.result: 9.19 µM (active)
--
compound: CC(C)=CC1C(C(=O)OCN2C(=O)C3=C(CCCC3)C2=O)C1(C)C (centres undefined)
reported.result: 6.68 µM (active)
--
compound: CC[C@H](C)[C@H]1O[C@]2(C=C[C@@H]1C)C[C@@H]1C[C@@H](C/C=C(\C)[C@@H](O[C@H]3C[C@H](OC)[C@@H](O[C@H]4C[C@H](OC)[C@@H](NC)[C@H](C)O4)[C@H](C)O3)[C@@H](C)/C=C/C=C3\CO[C@@H]4[C@H](O)C(C)=C[C@@H](C(=O)O1)[C@]34O)O2
reported.result: 8.1 µM (active)
--
compound: COP(=O)(OC)OC(Br)C(Cl)(Cl)Br (centres undefined)
reported.result: 11.8 µM (active)
